- Tested on: Streptococcus pneumoniae
- assay_explanation: MIC by two-fold serial agar dilution, Sensitivity Disk agar-N (Kitasato isolates)
- Assay type: cell-based
- experimental_setup: Streptococcus pneumoniae, 18 h, Ciprofloxacin-susceptible (94); read-out: MIC Range
measured_property: MIC

Give the measured MIC of CO/N=C1\CN(c2nc3c(cc2F)c(=O)c(C(=O)O)cn3C2CC2)CC1CN (racemic) .
0.008 to 0.063 µg/mL

What do we get for NC1CCN(c2nc3c(cc2F)c(=O)c(C(=O)O)cn3-c2ccc(F)cc2F)C1 (stereo not shown) ?
0.063 to 0.5 µg/mL

And what about the compound N[C@@H]1[C@H]2CN(c3nc4c(cc3F)c(=O)c(C(=O)O)cn4-c3ccc(F)cc3F)C[C@@H]12 ?
0.031 to 0.25 µg/mL

Request: O=C(O)c1cn(C2CC2)c2cc(N3CCNCC3)c(F)cc2c1=O
0.25 to 4 µg/mL

Please give the result for CO/N=C(\C(=O)N[C@@H]1C(=O)N2C(C(=O)O)=C(/C=C\c3scnc3C)CS[C@H]12)c1csc(N)n1 too.
0.008 to 2 µg/mL

Also C[C@@H]1CN(c2c(F)c(N)c3c(=O)c(C(=O)O)cn(C4CC4)c3c2F)C[C@H](C)N1 , if possible.
0.063 to 0.5 µg/mL

Okay, and C[C@H]1COc2c(N3CCN(C)CC3)c(F)cc3c(=O)c(C(=O)O)cn1c23 ?
0.25 to 2 µg/mL

###

- System: Shigella spp.
- assay_explanation: MIC by agar dilution (NCCLS M7-A4), 288 enteropathogenic isolates, gemifloxacin and 15 other antimicrobials
- Type: cell-based
- experimental_setup: read-out: MIC (mg/L) 50%; Shigella spp. N= 21
Exercise: state measured MIC for each of the compounds provided.

Look at this compound and give its reported MIC. CO/N=C(\C(=O)N[C@@H]1C(=O)N2C(C(=O)O)=C(COC(C)=O)CS[C@H]12)c1csc(N)n1
≤ 0.015 mg/L

Thanks! And CC1COc2c(N3CCN(C)CC3)c(F)cc3c(=O)c(C(=O)O)cn1c23 (stereo not shown) ?
0.03 mg/L

Field entry: Cc1c(F)c(N2CCNC(C)C2)cc2c1c(=O)c(C(=O)O)cn2C1CC1 (stereo not shown)
≤ 0.015 mg/L

And C[C@H]1COc2c(N3CCN(C)CC3)c(F)cc3c(=O)c(C(=O)O)cn1c23 ?
0.03 mg/L

###

- Test system: Staphylococcus aureus
- assay_explanation: microbe, parasite or virus in culture
- Format: cell-based
- experimental_setup: Staphylococcus aureus, S. aureus KU2241, mutant type NorA (efflux-mediated quinolone resistant)
measured_property: MIC (µg/mL)
Kindly provide the numeric value in µg/mL only, without the unit symbol.

# query: MIC of entry CO/N=C1\CN(c2nc3c(cc2F)c(=O)c(C(=O)O)cn3C2CC2)CC1CN (racemic)
0.063

How about this compound: N[C@@H]1[C@H]2CN(c3nc4c(cc3F)c(=O)c(C(=O)O)cn4-c3ccc(F)cc3F)C[C@@H]12
0.063

And what about the compound C[C@@H]1CN(c2c(F)c(N)c3c(=O)c(C(=O)O)cn(C4CC4)c3c2F)C[C@H](C)N1 ?
0.25

Field entry: NC1CCN(c2nc3c(cc2F)c(=O)c(C(=O)O)cn3-c2ccc(F)cc2F)C1 (stereo not shown)
0.125

###

Hi there, I'd appreciate the recorded MIC for every entry that follows.
- Test system: Staphylococcus aureus
- assay_explanation: MIC by NCCLS reference broth microdilution, 450 respiratory tract pathogens
- Type: cell-based
- experimental_setup: Staphylococcus aureus (n = 50)

# query: MIC of entry C[C@@H]1CN(c2c(F)c(N)c3c(=O)c(C(=O)O)cn(C4CC4)c3c2F)C[C@H](C)N1
0.06 to 1 mg/L

Then this compound: NC1CCN(c2c(F)cc3c(=O)c(C(=O)O)cn(C4CC4)c3c2Cl)C1 (centres unmarked)
0.06 to 0.25 mg/L

How about this compound: O=C(O)c1cn(C2CC2)c2cc(N3CCNCC3)c(F)cc2c1=O
0.06 to 4 mg/L

Again, but for CO/N=C(\C(=O)N[C@@H]1C(=O)N2C(C(=O)O)=C(COC(N)=O)CS[C@H]12)c1ccco1
0.00375 to 0.25 mg/L

Likewise for COc1c(N2C[C@@H]3CCCN[C@@H]3C2)c(F)cc2c(=O)c(C(=O)O)cn(C3CC3)c12 ?
0.015 to 0.5 mg/L

Please answer likewise for CO/N=C1\CN(c2nc3c(cc2F)c(=O)c(C(=O)O)cn3C2CC2)CC1CN (racemic)
0.00375 to 0.12 mg/L

Another compound: C[C@H]1COc2c(N3CCN(C)CC3)c(F)cc3c(=O)c(C(=O)O)cn1c23
0.03 to 2 mg/L

Then N[C@@H]1[C@H]2CN(c3nc4c(cc3F)c(=O)c(C(=O)O)cn4-c3ccc(F)cc3F)C[C@@H]12 ?
0.00375 to 0.5 mg/L

###

- Tested on: Enterococcus faecalis
- assay_explanation: MIC by NCCLS broth microdilution, 1100 Japanese clinical isolates 1997-1998
- Assay type: cell-based
- experimental_setup: Enterococcus faecalis, Enterococcus faecalis ciprofloxacin resistant (n=15); read-out: MIC90
measured_property: MIC90 (mg/L)
Form entry: value (mg/L) — number only.

Can you look up the measured MIC90 of NC1CCN(c2nc3c(cc2F)c(=O)c(C(=O)O)cn3-c2ccc(F)cc2F)C1 (centres unmarked) for me?
32

Try this molecule too: C[C@H]1COc2c(N3CCN(C)CC3)c(F)cc3c(=O)c(C(=O)O)cn1c23
32

Further, for N[C@@H]1[C@H]2CN(c3nc4c(cc3F)c(=O)c(C(=O)O)cn4-c3ccc(F)cc3F)C[C@@H]12 ?
16

Quick one: CO/N=C1\CN(c2nc3c(cc2F)c(=O)c(C(=O)O)cn3C2CC2)CC1CN (racemic)
8

And then C[C@@H]1CN(c2c(F)c(N)c3c(=O)c(C(=O)O)cn(C4CC4)c3c2F)C[C@H](C)N1 , what is it?
64

###

What MIC50 was measured for each of the following?
- System: Shigella spp.
- assay_explanation: MIC by NCCLS broth microdilution, 1100 Japanese clinical isolates 1997-1998
- Assay type: cell-based
- experimental_setup: Shigella spp. (n=34)
All answers are understood in µg/mL, so give the number only.

// fetch Shigella spp. MIC50 for NC1CCN(c2nc3c(cc2F)c(=O)c(C(=O)O)cn3-c2ccc(F)cc2F)C1 (centres unmarked)
0.016

Also C[C@H]1COc2c(N3CCN(C)CC3)c(F)cc3c(=O)c(C(=O)O)cn1c23 ?
0.016

###

- Test system: Gram negative anaerobic pathogens and facultative anaerobic pathogens
- assay_explanation: MIC by agar dilution, Brucella HK agar with 5% laked sheep blood, anaerobic reference strains
- Format: cell-based
- experimental_setup: Bacteroides fragilis, Bacteroides fragilis GAI30144; read-out: MIC
Field: MIC. Provide a value for each of the compounds that follow.
// return numeric value only (unit: µg/mL, not printed)

Value lookup for MIC; key = N[C@@H]1[C@H]2CN(c3nc4c(cc3F)c(=O)c(C(=O)O)cn4-c3ccc(F)cc3F)C[C@@H]12 [Trovafloxacin, trovafloxacin]
0.25

Entry C[C@@H](O)[C@H]1C(=O)N2C(C(=O)O)=C(SCCN=CN)C[C@H]12 [Imipenem] please
256

Again, but for C[C@@H]1CN(c2c(F)c(N)c3c(=O)c(C(=O)O)cn(C4CC4)c3c2F)C[C@H](C)N1 [Sparfloxacin, sparfloxacin]
1

# repeat for CO/N=C1\CN(c2nc3c(cc2F)c(=O)c(C(=O)O)cn3C2CC2)CC1CN (racemic) [Gemifloxacin]
2

###

- Test system: Streptococcus pneumoniae
- assay_explanation: MIC by broth microdilution (NCCLS), dried MicroScan panels, clinical isolates 1998-1999
- Format: cell-based
- experimental_setup: Streptococcus pneumoniae, Erythromycin-resistant (86)
measured_property: log10 of MIC90 (log10 of the value in µg/mL)
Could you please treat all values as log10 of MIC90 in µg/mL?

Need log10 of MIC90 of N[C@@H]1[C@H]2CN(c3nc4c(cc3F)c(=O)c(C(=O)O)cn4-c3ccc(F)cc3F)C[C@@H]12 [Trovafloxacin, trovafloxacin] , thanks.
-0.60

Also, Cc1c(F)c(N2CCNC(C)C2)cc2c1c(=O)c(C(=O)O)cn2C1CC1 (centres unmarked) [Grepafloxacin, grepafloxacin] please.
-0.92

Would you mind doing CC1COc2c(N3CCN(C)CC3)c(F)cc3c(=O)c(C(=O)O)cn1c23 (centres unmarked) [Ofloxacin, ofloxacin] as well?
0.30

C[C@H]1COc2c(N3CCN(C)CC3)c(F)cc3c(=O)c(C(=O)O)cn1c23 [Levofloxacin, levofloxacin] ?
0.00

Same again, this time with CO/N=C1\CN(c2nc3c(cc2F)c(=O)c(C(=O)O)cn3C2CC2)CC1CN (racemic) [Gemifloxacin]
-1.52
